experimental_target: T1, recombinant human Ang2-FLD (human, UniProt O15123 275-496, limits assumed)
T1 construct: domain: FLD; not used
T1 sequence (looked up): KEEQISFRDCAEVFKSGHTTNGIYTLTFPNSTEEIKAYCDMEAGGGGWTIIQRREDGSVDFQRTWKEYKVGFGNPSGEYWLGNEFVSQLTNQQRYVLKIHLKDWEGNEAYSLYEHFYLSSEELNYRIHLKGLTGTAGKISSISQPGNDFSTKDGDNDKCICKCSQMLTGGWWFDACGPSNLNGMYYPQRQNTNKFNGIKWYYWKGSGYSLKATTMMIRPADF
protocol_notes: SPR (Biacore T100), binder on CM5 chip, Ang2-FLD as analyte
property_name: pKd
Answer as the number alone; pKd is minus log10 of concentration in mol/L.

(Q) Consider the binder VHH 28D10 (VHH, also called 028D10; not shown: C-terminal c-myc tag and His6 tag) VHH: EVQLVESGGGLVQAGGSLRLSCAASGFTLDDYAIGWFRQAPGKEREGVSCIRDSDGSTYYADSVKGRFTISSDNDKNTVYLQMNSLKPEDTAVYYCAAVPAGRLRFGEQWYPLYEYDAWGQGTQVTVSS . State its measured pKd.
(A) 8.89

(Q) Supply pKd value. Item: VHH 24B05 (VHH, also called 024B05; not shown: C-terminal c-myc tag and His6 tag) VHH: EVQLVESGGGLVQPGGSLRLSCAASGFTLDYYAIGWFRQAPGKEWEGVSCISSSDGSTYYADSVKGRFTISRDNAKNTVYLQMNSLKPEDTAVYYCATDSIVCGSYYGMDYWGKGTQVTVSS
(A) 9.02

(Q) State its pKd: VHH 11B07 (VHH, also called 011B07; not shown: C-terminal c-myc tag and His6 tag) VHH: EVQLVESGGGLVQVGDSLRLSCAASGRTFSTYLMVGWFRQAPGKEREFAAGIWSSGDTAYADSVRGRFTISRDNAKNTVYLQMNSLKTEDTAVYYCAGSYDGNYYIPGFYKDWGQGTQVTVSS
(A) 8.17

(Q) Tell me pKd reported for VHH 1D01 (VHH, also called 001D01; not shown: C-terminal c-myc tag and His6 tag) VHH: EVQLVESGGGLVQAGGSLRLSCAASGFTFDDYALGWFRQAAGKEREGVSCIRCSDGSTYYADSVKGRFTISSDNAKNTVYLQMNSLKPEDTAVYYCAASIVPRSKLEPYEYDAWGQGTQVTVSS
(A) 8.70

(Q) Look up and report measured pKd for this entry: VHH 13A02 (VHH, also called 013A02; not shown: C-terminal c-myc tag and His6 tag) VHH: EVQLVESGGGLVQAGGSLRLSCAASGGTFSSYSMGWFRQAPGKEREFIAAINWNGDSTYYEDSVKGRFTVSRDNAKNTVYLQMNSLKPEDTAVYYCAATGWGRAYEQAYEYDVWGQGTQVTVSS
(A) 8.00

(Q) Name the recorded pKd of the binder listed here: VHH 10H02 (VHH, also called 010H02; not shown: C-terminal c-myc tag and His6 tag) VHH: EVQLVESGGGSVQAGGSLRLSCAASGFTFDDYAIGWFRQAPGKEREGVSCISSSDGSTNYADSVKGRFTISSDTAKNTVYLQMNSLKPEDTAVYYCTAVPATRRTPQMVDANMCWLAEYEYDYWGQGTQVTVSS
(A) 8.44

(Q) Read off the recorded pKd for VHH 7G08 (VHH, also called 007G08; not shown: C-terminal c-myc tag and His6 tag) VHH: EVQLVESGGGLVQPGGSLRLSCAASGFALDYYAIGWFRQVPGKEREGVSCISSSDGITYYVDSVKGRFTISRDNAKNTVYLQMNSLKPEDTAVYYCATDSGGYIDYDCMGLGYDYWGQGTQVTVSS
(A) 10.01
